# System: U251 CNS
Classes used: YES = active, NO = inactive

[
  {
    "molecule": "CCCCCCCCCC(CCCC(O)CC(=O)O)OC1OC(COC2OC(C)C(O)C(O)C2O)C(O)C(O)C1OC1OC(CO)C(O)C(O)C1OC1OC(C)C(OC(=O)CC(C)C)C(O)C1O (stereo not drawn)",
    "testTarget": "U251 CNS",
    "categoryLabel": "NO"
  },
  {
    "molecule": "COc1cccc2c1C(=O)c1c(O)c3c(c(O)c1C2=O)C[C@@](O)(C(C)=O)C[C@@H]3O[C@H]1C[C@H](N)[C@H](O)[C@H](C)O1",
    "testTarget": "U251 CNS",
    "categoryLabel": "YES"
  },
  {
    "molecule": "COc1ccc(C2C(C#N)=C(N)Oc3c2sc2c(F)cccc32)cc1 (stereo not drawn)",
    "testTarget": "U251 CNS",
    "categoryLabel": "NO"
  }
]

###

# Tested on: K-562 leukemia
# experimentSummary: NCI tumour cell line growth inhibition, 48 h
Overview of recorded TGI for various molecules

[
  {
    "molecule": "O=C1OC(c2ccccc2)=N/C1=C\\c1ccc(Cl)cc1",
    "TGI": "> 100 µM"
  },
  {
    "molecule": "CC(=O)N1C(Nc2ccccc2)CCN1c1ccccc1 (stereo not drawn)",
    "TGI": "> 10 µM"
  },
  {
    "molecule": "O=C(NCc1ccccc1)c1cc2ccc(O)c(O)c2cn1",
    "TGI": "> 100 µM"
  },
  {
    "molecule": "N[C@H]1C[C@@H]1c1ccc(-c2cccc(O)c2)cc1",
    "TGI": "76.1 µM"
  },
  {
    "molecule": "O=C1/C(=C\\c2ccc(Cl)cc2)CCOc2c1ccc1ccccc21",
    "TGI": "> 100 µM"
  },
  {
    "molecule": "[C-]#[O+].[C-]#[O+].[C-]#[O+].[C-]#[O+].[O-]C(c1ccccc1[PH+]1OC(C(F)(F)F)(C(F)(F)F)c2ccccc21)(C(F)(F)F)C(F)(F)F.[Re] (stereo not drawn)",
    "TGI": "11.1 µM"
  },
  {
    "molecule": "Clc1ccc(CNc2ccc3nc(CCC4CCCCC4)[nH]c3c2)cc1",
    "TGI": "5.02 µM"
  },
  {
    "molecule": "CCOC(=O)c1c(SC(=O)C(C)(C)Oc2ccc(Cl)cc2)n(-c2ccccc2)c(=S)n(-c2ccccc2)c1=O",
    "TGI": "> 100 µM"
  }
]

###

# Tested on: 786-0 renal
# experimentSummary: NCI tumour cell line growth inhibition, 48 h

[
  {
    "compound": "CC(=O)OC1CC(OC2C(O)CC(OC3C(O)CC(OC4CCC5(C)C(CCC6C5CCC5(C)C(C7=CC(=O)OC7)C(O)CC65O)C4)OC3C)OC2C)OC(C)C1OC1OC(CO)C(O)C(O)C1O (stereo not given)",
    "TGI": "0.943 µM"
  },
  {
    "compound": "Cc1ccc(NC(=O)/C=C/c2ccccc2)c(C)c1",
    "TGI": "> 100 µM"
  },
  {
    "compound": "O=C(NCCCN1CCC(N2CCCCC2)CC1)C1=Cc2cc(Br)ccc2OC1",
    "TGI": "25.8 µM"
  },
  {
    "compound": "CC(OC(C)(C)C)[C@H](NC(=O)OCc1ccccc1)C(=O)NC(OCc1ccccc1)[C@H]1COC(C)(C)O1 (stereo not given in full)",
    "TGI": "> 10 µM"
  },
  {
    "compound": "NCCNS(=O)(=O)c1ccc(N)cc1",
    "TGI": "> 100 µM"
  },
  {
    "compound": "CCN(CC)c1ccc(/C=N/NC(=O)c2ccc(S(C)(=O)=O)cc2)c(O)c1",
    "TGI": "> 100 µM"
  },
  {
    "compound": "COc1cc(/C=C2\\C[C@H]3[C@@H]4CC=C5C[C@@H](OC(C)=O)CC[C@]5(C)[C@H]4CC[C@]3(C)\\C2=N\\O)cc(OC)c1OC",
    "TGI": "> 43.3 µM"
  },
  {
    "compound": "COc1ccc(NC(=O)Nc2ccccc2CNc2nc(Nc3ccc(OCCN4CCCC4)cc3)ncc2Cl)cc1",
    "TGI": "1.64 µM"
  },
  {
    "compound": "O=C1OC(c2ccccc2)=N/C1=C\\c1ccc(Cl)cc1",
    "TGI": "> 100 µM"
  },
  {
    "compound": "CCN(CC)CCOCCn1c2c(c3ccccc31)CCCC2",
    "TGI": "30 µM"
  }
]
